# cell viability per entry
System: MARIMO;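 also: after 48 h exposure read by CellTiter-Glo luminescence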
Test: cell viability relative to vehicle control; higher = less cytotoxic
Details: 10 µM; SRSF2 genotype: SRSF2 P95H/wt
Use % as the unit, but write only the number.

Solved cases (3 shown):
1. CN1CCC[C@H]1c1cccnc1 [nicotine ditartrate]    105
2. C=CC(=O)N1CC/C(=C\c2ccc(F)c([N+](=O)[O-])c2)C(=O)/C(=C/c2ccc(F)c([N+](=O)[O-])c2)C1    0.25
3. COC(=O)c1ccccc1O [Methyl salicylate]    99.2

Any idea what its cell viability is? The compound is CC(C)(CCCCCC(O)CCCCCC(C)(C)C(=O)O)C(=O)O
106

Any idea what its cell viability is? The compound is C=C1CC[C@@H]2[C@](C)(CO)[C@H](O)CC[C@@]2(C)[C@@H]1C/C=C1/C(=O)OC[C@H]1O [Andrographolide]
20.5
